ASSAYED SYSTEM: CDK1 CCNA2 (human) (UniProt P06493+P20248)
Sequence (P06493 whole entry, looked up): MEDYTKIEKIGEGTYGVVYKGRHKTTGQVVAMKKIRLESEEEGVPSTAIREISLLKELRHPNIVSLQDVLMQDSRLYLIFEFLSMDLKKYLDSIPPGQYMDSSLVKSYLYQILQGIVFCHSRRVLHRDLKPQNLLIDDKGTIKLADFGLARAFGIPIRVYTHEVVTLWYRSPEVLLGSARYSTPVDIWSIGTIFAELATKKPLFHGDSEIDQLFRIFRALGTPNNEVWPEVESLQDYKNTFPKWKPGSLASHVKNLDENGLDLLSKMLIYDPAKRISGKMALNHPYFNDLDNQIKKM
Sequence (P20248 whole entry, looked up): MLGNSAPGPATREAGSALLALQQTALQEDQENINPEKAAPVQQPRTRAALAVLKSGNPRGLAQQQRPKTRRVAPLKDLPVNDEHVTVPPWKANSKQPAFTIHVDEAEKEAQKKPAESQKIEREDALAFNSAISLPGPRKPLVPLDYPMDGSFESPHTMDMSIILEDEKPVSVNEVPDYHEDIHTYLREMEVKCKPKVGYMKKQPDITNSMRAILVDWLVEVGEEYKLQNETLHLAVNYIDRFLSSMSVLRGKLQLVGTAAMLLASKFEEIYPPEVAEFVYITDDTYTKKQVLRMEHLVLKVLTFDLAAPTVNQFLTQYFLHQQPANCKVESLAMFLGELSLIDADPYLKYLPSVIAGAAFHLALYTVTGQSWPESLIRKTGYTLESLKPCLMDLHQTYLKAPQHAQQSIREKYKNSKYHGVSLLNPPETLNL
TEST PROTOCOL: radiometric filter-binding kinase assay, Kinase HotSpot
RUN CONDITIONS: compound 0.5 µM; ATP 10 µM
QUANTITY KIND: residual activity (%)
// units = %; emit number, no label

Nc1ccc2ncnc(NCCc3ccc(Oc4ccccc4)cc3)c2c1 98.9
COc1ccc2c(c[n+](C)c3c4cc5c(cc4ccc23)OCO5)c1OC 89.7

What residual activity value was documented for this compound, CC[n+]1c(/C=C/N(C)c2ccccc2)n(-c2ccccc2)c2ccc(-c3nc4ccccc4s3)cc21 ?
98.8

* * *

ASSAYED SYSTEM: GRK7 (human) (UniProt Q8WTQ7)
Sequence (Q8WTQ7 whole entry, looked up): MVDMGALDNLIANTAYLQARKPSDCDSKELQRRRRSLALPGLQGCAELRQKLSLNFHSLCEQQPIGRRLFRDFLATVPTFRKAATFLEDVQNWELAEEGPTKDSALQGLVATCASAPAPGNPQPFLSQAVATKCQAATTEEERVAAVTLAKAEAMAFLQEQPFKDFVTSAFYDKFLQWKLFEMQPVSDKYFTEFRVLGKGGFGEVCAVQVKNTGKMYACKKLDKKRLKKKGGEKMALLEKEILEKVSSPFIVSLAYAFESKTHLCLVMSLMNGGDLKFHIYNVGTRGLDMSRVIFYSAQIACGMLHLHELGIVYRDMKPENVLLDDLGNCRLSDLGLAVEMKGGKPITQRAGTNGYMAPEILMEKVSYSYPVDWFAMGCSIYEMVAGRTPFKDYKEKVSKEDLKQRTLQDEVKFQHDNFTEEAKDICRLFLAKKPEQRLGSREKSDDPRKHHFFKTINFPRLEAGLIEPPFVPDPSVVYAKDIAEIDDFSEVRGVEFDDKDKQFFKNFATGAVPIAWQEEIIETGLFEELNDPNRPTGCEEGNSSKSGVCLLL
TEST PROTOCOL: radiometric filter-binding kinase assay, Kinase HotSpot
RUN CONDITIONS: compound 0.5 µM; ATP 10 µM
Listing: residual activity of selected molecules
// units = %; emit number, no label

Below: 3 molecules and their reported residual activity.
MOLECULE	residual activity, %
Nc1ccc2ncnc(NCCc3ccc(Oc4ccccc4)cc3)c2c1	104
Cc1ccc(S(=O)(=O)/C=C/C#N)cc1	92.6
Cc1[nH]c(/C=C2\C(=O)Nc3ccc(S(=O)(=O)N(C)c4cccc(Cl)c4)cc32)c(C)c1C(=O)N1CCN(C)CC1	86.7

What residual activity value was documented for this molecule, O=C1NC(=O)/C(=C/c2ccc3c(c2)OC(F)(F)O3)S1 ?
102

// repeat for CCC(=O)Nc1ccc2ncnc(Nc3cccc(Br)c3)c2c1 and report
105

// repeat for CC#CC(=O)Nc1cc2c(Nc3ccc(F)c(Cl)c3)ncnc2cn1 and report
106

// repeat for Nc1ncnc2c1c(-c1ccc(Oc3ccccc3)cc1)cn2C1CCCC1 and report
114

// repeat for CO[C@H]1CC2CC[C@@H](C)[C@@](O)(O2)C(=O)C(=O)N2CCCC[C@H]2C(=O)OC([C@H](C)C[C@@H]2CC[C@@H](O)[C@H](OC)C2)CC(=O)[C@H](C)/C=C(\C)[C@@H](O)[C@@H](OC)C(=O)[C@H](C)C[C@H](C)/C=C/C=C/C=C/1C (stereo partly specified) and report
98

// repeat for O=C1NC(=O)C(c2cn(CCCn3ccnc3)c3ccccc23)=C1Nc1ccccc1 and report
86.3

// repeat for CCN(CC)CCNC(=O)c1c(C)[nH]c(/C=C2\C(=O)Nc3ccc(Cl)cc32)c1C and report
62.2

* * *

ASSAYED SYSTEM: FGFR3 (human)
TEST PROTOCOL: radiometric filter-binding kinase assay, Kinase HotSpot
RUN CONDITIONS: compound 0.5 µM; ATP 10 µM
Listing: residual activity of selected molecules
// units = %; emit number, no label

Below: 2 molecules and their reported residual activity.
c1ccc(-c2n[nH]cc2-c2ccnc3ccccc23)nc1 97.4
COc1ccc(COc2ccc(Cc3cnc(N)nc3N)cc2OC)cc1 105

Form: Entry = Nc1ncnc2c1c(-c1ccc(Oc3ccccc3)cc1)cn2C1CCCC1 | System = FGFR3 (human) | residual activity = ____
77.5

// repeat for CCCC(=O)Oc1ccc2[nH]c(C(=O)c3cc4ccccc4[nH]3)cc2c1 and report
95.2

// repeat for CC#CC(=O)Nc1cc2c(Nc3ccc(F)c(Cl)c3)ncnc2cn1 and report
108

// repeat for CCN(CC)CCNC(=O)c1c(C)[nH]c(/C=C2\C(=O)Nc3ccc(Cl)cc32)c1C and report
12.3

// repeat for CCOC(=O)c1c(C)[nH]c(/C=C2\C(=O)Nc3ccccc32)c1C and report
80.4

// repeat for O=C1NC(=O)c2c1c1c3ccccc3n3c1c1c2c2ccccc2n1C1CCC3O1 and report
36.3

// repeat for Cc1ccc(Nc2nccc(N(C)c3ccc4c(C)n(C)nc4c3)n2)cc1S(N)(=O)=O and report
39.3

// repeat for N#C/C(=C(/N)Sc1ccc(N)cc1)c1ccccc1C(F)(F)F and report
98.5

* * *

ASSAYED SYSTEM: SGK3 (human) (UniProt Q96BR1)
Sequence (Q96BR1 whole entry, looked up): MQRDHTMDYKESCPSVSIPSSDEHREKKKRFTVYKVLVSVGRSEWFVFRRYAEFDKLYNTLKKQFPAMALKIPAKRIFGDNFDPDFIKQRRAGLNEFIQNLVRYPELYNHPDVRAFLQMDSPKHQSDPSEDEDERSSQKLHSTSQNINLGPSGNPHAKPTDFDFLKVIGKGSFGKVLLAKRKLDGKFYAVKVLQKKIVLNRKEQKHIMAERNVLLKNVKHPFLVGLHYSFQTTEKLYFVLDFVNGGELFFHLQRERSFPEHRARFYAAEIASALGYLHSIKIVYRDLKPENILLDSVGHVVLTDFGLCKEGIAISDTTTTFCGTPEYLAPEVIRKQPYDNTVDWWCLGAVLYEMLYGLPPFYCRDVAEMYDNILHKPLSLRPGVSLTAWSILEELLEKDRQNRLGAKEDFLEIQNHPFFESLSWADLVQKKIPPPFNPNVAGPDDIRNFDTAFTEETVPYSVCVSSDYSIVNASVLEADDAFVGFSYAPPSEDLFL
TEST PROTOCOL: radiometric filter-binding kinase assay, Kinase HotSpot
RUN CONDITIONS: compound 0.5 µM; ATP 10 µM
QUANTITY KIND: residual activity (%)
// units = %; emit number, no label

COMPOUND	residual activity (%)
CC(C)N(CCC(=O)c1ccc2ccccc2c1)Cc1ccccc1	106
CCCC(=O)Oc1ccc2[nH]c(C(=O)c3cc4ccccc4[nH]3)cc2c1	102
Nc1ncnc2c1c(-c1ccc(Oc3ccccc3)cc1)cn2C1CCCC1	112

Form: Entry = CNc1cc2c(Nc3cccc(Br)c3)ncnc2cn1 | System = SGK3 (human) (UniProt Q96BR1) | residual activity = ____
96.8

// repeat for CCN(CC)C(=O)c1ccc(Nc2nc(OCC3CCCCC3)c3nc[nH]c3n2)cc1 and report
97.2

// repeat for COc1ccc2c(c[n+](C)c3c4cc5c(cc4ccc23)OCO5)c1OC and report
96

// repeat for Oc1cccc(-c2nc(N3CCOCC3)c3oc4ncccc4c3n2)c1 and report
95.8

// repeat for CO[C@H]1CC2CC[C@@H](C)[C@@](O)(O2)C(=O)C(=O)N2CCCC[C@H]2C(=O)OC([C@H](C)C[C@@H]2CC[C@@H](O)[C@H](OC)C2)CC(=O)[C@H](C)/C=C(\C)[C@@H](O)[C@@H](OC)C(=O)[C@H](C)C[C@H](C)/C=C/C=C/C=C/1C (some centres undefined) and report
98.1

// repeat for Nc1cccc(-c2cc3c(Oc4cccc(O)c4)ncnc3[nH]2)c1 and report
117

* * *

ASSAYED SYSTEM: IRAK1 (human) (UniProt P51617)
Sequence (P51617 whole entry, looked up): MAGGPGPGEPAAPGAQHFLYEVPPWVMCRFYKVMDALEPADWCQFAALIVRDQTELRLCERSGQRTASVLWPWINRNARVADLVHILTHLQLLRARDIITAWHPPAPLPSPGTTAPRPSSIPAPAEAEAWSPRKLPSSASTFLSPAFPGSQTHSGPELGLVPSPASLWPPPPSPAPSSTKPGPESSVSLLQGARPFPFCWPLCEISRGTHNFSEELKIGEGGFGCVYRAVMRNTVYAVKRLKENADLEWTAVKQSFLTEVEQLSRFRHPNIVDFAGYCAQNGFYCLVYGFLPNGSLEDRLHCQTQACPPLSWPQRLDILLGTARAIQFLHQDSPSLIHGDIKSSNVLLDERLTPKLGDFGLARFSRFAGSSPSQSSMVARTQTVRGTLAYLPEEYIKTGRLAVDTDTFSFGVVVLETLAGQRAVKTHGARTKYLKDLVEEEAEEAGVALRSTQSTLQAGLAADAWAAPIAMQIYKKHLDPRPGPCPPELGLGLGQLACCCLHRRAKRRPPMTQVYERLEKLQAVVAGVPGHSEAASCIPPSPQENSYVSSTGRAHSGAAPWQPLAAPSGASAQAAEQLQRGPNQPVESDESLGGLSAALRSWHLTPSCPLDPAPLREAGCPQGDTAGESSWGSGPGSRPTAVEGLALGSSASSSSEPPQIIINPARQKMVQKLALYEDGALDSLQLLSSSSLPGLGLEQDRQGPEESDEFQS
TEST PROTOCOL: radiometric filter-binding kinase assay, Kinase HotSpot
RUN CONDITIONS: compound 0.5 µM; ATP 10 µM
Classification field: enter Condition met for residual activity values not below 90%, Condition not met for values below it.

CCN(CC)C(=O)c1ccc(Nc2nc(OCC3CCCCC3)c3nc[nH]c3n2)cc1 Condition met
COc1ccc2c(c[n+](C)c3c4cc5c(cc4ccc23)OCO5)c1OC Condition met
O=C1NC(=O)/C(=C/c2ccc3c(c2)OC(F)(F)O3)S1 Condition not met

Below: the item to evaluate.
Form field: residual activity at least 90%? Entry: Oc1cccc(-c2nc(N3CCOCC3)c3oc4ncccc4c3n2)c1
Condition not met

* * *

ASSAYED SYSTEM: TLK2 (human)
TEST PROTOCOL: radiometric filter-binding kinase assay, Kinase HotSpot
RUN CONDITIONS: compound 0.5 µM; ATP 10 µM
QUANTITY KIND: residual activity (%)
// units = %; emit number, no label

COMPOUND	ASSAYED SYSTEM	residual activity, %
CNc1cc2c(Nc3cccc(Br)c3)ncnc2cn1	TLK2 (human)	114

What residual activity value was documented for this compound, Nc1ccc2ncnc(NCCc3ccc(Oc4ccccc4)cc3)c2c1 ?
92.8

// repeat for N#C/C(=C(/N)Sc1ccc(N)cc1)c1ccccc1C(F)(F)F and report
92.5

// repeat for O=C1NC(=O)c2c1c1c3ccccc3n3c1c1c2c2ccccc2n1C1CCC3O1 and report
14.1

// repeat for CO[C@H]1CC2CC[C@@H](C)[C@@](O)(O2)C(=O)C(=O)N2CCCC[C@H]2C(=O)OC([C@H](C)C[C@@H]2CC[C@@H](O)[C@H](OC)C2)CC(=O)[C@H](C)/C=C(\C)[C@@H](O)[C@@H](OC)C(=O)[C@H](C)C[C@H](C)/C=C/C=C/C=C/1C (stereo partly drawn) and report
94.4

// repeat for O=C1NC(=O)/C(=C/c2ccc3c(c2)OC(F)(F)O3)S1 and report
104

// repeat for Cc1[nH]c(/C=C2\C(=O)Nc3ccc(S(=O)(=O)N(C)c4cccc(Cl)c4)cc32)c(C)c1C(=O)N1CCN(C)CC1 and report
95.8

// repeat for CCN(CC)CCNC(=O)c1c(C)[nH]c(/C=C2\C(=O)Nc3ccc(Cl)cc32)c1C and report
79.6

// repeat for Cc1ccc(Nc2nccc(N(C)c3ccc4c(C)n(C)nc4c3)n2)cc1S(N)(=O)=O and report
85.6

* * *

Listing: residual activity of selected molecules
ASSAYED SYSTEM: RPS6KA5 KD2 (human) (UniProt O75582)
Sequence (O75582 whole entry, looked up): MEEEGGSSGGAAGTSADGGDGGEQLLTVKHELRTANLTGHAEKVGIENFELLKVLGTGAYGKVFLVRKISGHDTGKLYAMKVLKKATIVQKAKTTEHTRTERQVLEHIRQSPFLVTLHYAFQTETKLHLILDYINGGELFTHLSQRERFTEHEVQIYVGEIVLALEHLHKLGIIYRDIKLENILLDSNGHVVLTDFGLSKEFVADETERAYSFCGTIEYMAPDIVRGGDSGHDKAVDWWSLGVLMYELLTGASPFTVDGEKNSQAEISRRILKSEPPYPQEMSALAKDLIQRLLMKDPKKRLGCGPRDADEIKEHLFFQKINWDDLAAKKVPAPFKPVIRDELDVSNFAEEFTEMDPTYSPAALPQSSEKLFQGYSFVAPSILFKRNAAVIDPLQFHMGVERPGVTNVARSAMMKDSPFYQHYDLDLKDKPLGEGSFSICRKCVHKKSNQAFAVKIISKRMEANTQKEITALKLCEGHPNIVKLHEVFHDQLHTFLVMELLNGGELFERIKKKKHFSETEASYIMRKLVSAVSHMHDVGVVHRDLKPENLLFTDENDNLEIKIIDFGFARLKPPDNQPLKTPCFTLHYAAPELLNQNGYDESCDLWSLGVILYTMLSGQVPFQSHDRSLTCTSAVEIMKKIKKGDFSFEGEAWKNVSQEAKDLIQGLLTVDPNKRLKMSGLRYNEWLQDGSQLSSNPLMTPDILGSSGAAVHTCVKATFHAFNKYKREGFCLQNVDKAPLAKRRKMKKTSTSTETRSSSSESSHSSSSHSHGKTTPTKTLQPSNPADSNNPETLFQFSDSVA
TEST PROTOCOL: radiometric filter-binding kinase assay, Kinase HotSpot
RUN CONDITIONS: compound 0.5 µM; ATP 10 µM
// units = %; emit number, no label

What residual activity value was documented for this molecule, Nc1cccc(-c2cc3c(Oc4cccc(O)c4)ncnc3[nH]2)c1 ?
83.6

// repeat for O=C(Nc1cccc(Nc2nccc(Nc3cccc(C(F)(F)F)c3)n2)c1)C1CC1 and report
101

// repeat for N#C/C(=C(/N)Sc1ccc(N)cc1)c1ccccc1C(F)(F)F and report
97.9

// repeat for CCN(CC)CCNC(=O)c1c(C)[nH]c(/C=C2\C(=O)Nc3ccc(Cl)cc32)c1C and report
59

// repeat for COc1ccc2c(c[n+](C)c3c4cc5c(cc4ccc23)OCO5)c1OC and report
83.3
